- assayedSystem: T1, SARS-CoV-2 S1 (Acro) (SARS-CoV-2, UniProt P0DTC2 16-685)
- T1 construct: also called Acro S1
- assayOverview: Carterra SPR
binders and their reported Kd
A number alone suffices; assume nM.

{"columns": ["binder", "Kd / nM"],
 "data": [
  ["3-31 (VHH, also called 3-31_ExpiCHO) VHH: EVQLVESGGGLVQPGGSLRLSCAASGSTFSINAMGWFRQAPGKEREFVAGITSSGGYTNYADSVKGRFTISADNSKNTAYLQMNSLKPEDTAVYYCAADGVPEYSDYASGPVWGQGTLVTVSS", 21],
  ["7-6 (VHH, not shown: a dimerising Fc or GST) VHH: EVQLVESGGGLVQPGGSLRLSCAASGRIFYPMGWFRQAPGKEREFVAAVRWSSTGIYYTQYADSVKGRFTISADNSKNTAYLQMNSLKPEDTAVYYCAAALSEVWRGSENLREGYDWGQGTLVTVSS", 42.4],
  ["7-30 (VHH, not shown: a dimerising Fc or GST) VHH: EVQLVESGGGLVQPGGSLRLSCAASGRTFSMHAMGWFRQAPGKEREFVASISSQGRTNYADSVKGRFTISADNSKNTAYLQMNSLKPEDTAVYYCAAEVRNGSDYLPIDWGQGTLVTVSS", 48.7],
  ["7-26 (VHH) VHH: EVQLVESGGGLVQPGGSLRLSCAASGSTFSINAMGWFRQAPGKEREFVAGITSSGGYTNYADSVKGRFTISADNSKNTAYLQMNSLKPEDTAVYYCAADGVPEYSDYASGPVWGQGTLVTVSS", 24.8]
]}

The binder identified as 7-09 (VHH, also called 7-9) VHH: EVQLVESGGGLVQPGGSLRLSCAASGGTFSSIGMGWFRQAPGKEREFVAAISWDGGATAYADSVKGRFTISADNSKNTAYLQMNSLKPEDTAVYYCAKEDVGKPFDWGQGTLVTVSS registered its Kd at 24.1

Lab note: measured Kd of 7-29 (VHH, not shown: a dimerising Fc or GST) VHH: EVQLVESGGGLVQPGGSLRLSCAASGRTHSIYPMGWFRQAPGKEREFVASITSYGDTNYADSVKGRFTISADNSKNTAYLQMNSLKPEDTAVYYCAARRWIPPGPIWGQGTLVTVSS was 31.2

Entry under test: 7-41 (VHH) VHH: EVQLVESGGGLVQPGGSLRLSCAASGRTFSTYVMGWFRQAPGKEREFVASISSRGITHYADSVKGRFTISADNSKNTAYLQMNSLKPEDTAVYYCAKEDVGKPFDWGQGTLVTVSS . Its Kd was 48.1

For reference, reported Kd for 7-32 (VHH) VHH: EVQLVESGGGLVQPGGSLRLSCAASGSTFSVNAMGWFRQAPGKEREFVAGVTRGGYTNYADSVKGRFTISADNSKNTAYLQMNSLKPEDTAVYYCAADGVPEYSDYASGPVWGQGTLVTVSS stands at 48.5
